biological target: Gamma-aminobutyric acid receptor subunit alpha-1 [28-456]/beta-2 [26-512]/gamma-2 [40-467,L179C] (Homo sapiens, UniProt P14867+P18507+P47870, L179C); construct: 28-456; 26-512; 40-467; assay: Radioligand Binding Assay; details: 25 °C
METRIC_NAME: Ki (nM)

compound="CN1CCN(C(=O)Oc2c3[nH]ccnc-3c(=O)n2-c2ccc(Cl)cn2)CC1 [ESZ]" metric_name=Ki recorded_number=46.3
